Attribution: the Human Domainome abundance scans (Beltran et al. 2025)

B1: Connector enhancer of kinase suppressor of ras 2, residues 9 to 71; numbered along this chain, Q8WXI2 (parent)
chain: SKWSPSQVVDWMKGLDDCLQQYIKNFEREKISGDQLLRITHQELEDLGVSRIGHQELILEAVD

# Variants of: B1
# protocol_notes: abundance fitness (aPCA) (normalised: wild type 0, dead -1); higher = more abundant; growth selection in yeast, the domain comes from the species named
# settings: Homo sapiens
Rule: abundance fitness under -0.5 gives N, otherwise Y.

[
  {
    "variant_annotation": "I39D",
    "discrete_label": "N"
  },
  {
    "variant_annotation": "I52W",
    "discrete_label": "Y"
  }
]

**Q:** Item F26V with abundance fitness of -0.5 or above?
**A:** Y

**Q:** Item H41S with abundance fitness of -0.5 or above?
**A:** Y

**Q:** Item Q42F with abundance fitness of -0.5 or above?
**A:** N

**Q:** Item E56P with abundance fitness of -0.5 or above?
**A:** N

**Q:** Item H54F with abundance fitness of -0.5 or above?
**A:** N

**Q:** Item V49D with abundance fitness of -0.5 or above?
**A:** N

**Q:** Item L59V with abundance fitness of -0.5 or above?
**A:** N

**Q:** Item K30F with abundance fitness of -0.5 or above?
**A:** Y

**Q:** Item S50E with abundance fitness of -0.5 or above?
**A:** Y

**Q:** Item E43H with abundance fitness of -0.5 or above?
**A:** Y

**Q:** Item T40P with abundance fitness of -0.5 or above?
**A:** N

**Q:** Item E43T with abundance fitness of -0.5 or above?
**A:** Y

**Q:** Item G53W with abundance fitness of -0.5 or above?
**A:** Y

**Q:** Item G48W with abundance fitness of -0.5 or above?
**A:** N

**Q:** Item C18N with abundance fitness of -0.5 or above?
**A:** Y

**Q:** Item N25K with abundance fitness of -0.5 or above?
**A:** Y

**Q:** Item R38W with abundance fitness of -0.5 or above?
**A:** N
